All figures here come from patent US20250320496A1.

tested on: human ABCB11 mRNA; test: ASO treatment of primary human hepatocytes (PHH), ABCB11 mRNA by RT-qPCR normalized to B2M; format: cell-based; conditions: primary human hepatocytes, 5 μM ASO, normalized to untreated PHHs (UNT)
Strand notation (5' to 3'): a small letter for the sugar, then the base; units joined by * are phosphorothioate-linked, units joined directly phosphodiester-linked; [ ] holds rarer units or linkages, { } end groups; capitals alone tell only the bases. e = 2'-O-(2-methoxyethyl) (MOE); l = locked nucleic acid (LNA); [5mC] = 5-methylcytosine; d = 2'-deoxy (DNA)
Record 1 whenever ABCB11 mRNA FC (5 μM ASO vs. UNT) is at 1 fold change or higher; record -1 when lower.

>  <substance>
CO-6991 (antisense eT*eG*eG*eA*lT*eG*eT*eA*lG*eA*eT*eG*lA*eA*eT*eG*lG*e[5mC]*eA*eA)

>  <experimental_system>
human ABCB11 mRNA

>  <discrete_label>
1

$$$$

# bool: ABCB11 mRNA FC (5 μM ASO vs. UNT) of CO-7031 (antisense eA*eA*eA*eG*eA*eA*eT*e[5mC]*eG*e[5mC]*eT*eG*eT*eG*eG*e[5mC]*eA*eG*eT*eT) >= 1 fold change
1

Hi, just wondering whether CO-3988 (antisense eA*eA*eA*eT*eG*e[5mC]*e[5mC]*e[5mC]*eA*eA*eG*eT*eT*eT*e[5mC]*eA*eT*eT*eG*e[5mC]) shows ABCB11 mRNA FC (5 μM ASO vs. UNT) of 1 fold change or higher.
1

Check this substance for ABCB11 mRNA FC (5 μM ASO vs. UNT) at or above 1 fold change: CO-7007 (antisense eG*eT*eG*eG*eA*dT*dG*dT*eA*dG*dA*dT*dG*eA*dA*dT*dG*eG*e[5mC]*eA*eA*eG)
-1

* * *

test system: human ABCB11 mRNA; test: ASO treatment of primary human hepatocytes (PHH), ABCB11 mRNA by RT-qPCR normalized to B2M; type: cell-based; conditions: primary human hepatocytes, 5 μM ASO with PO-modifications, normalized to untreated hepatocytes
Strand notation (5' to 3'): a small letter for the sugar, then the base; units joined by * are phosphorothioate-linked, units joined directly phosphodiester-linked; [ ] holds rarer units or linkages, { } end groups; capitals alone tell only the bases. e = 2'-O-(2-methoxyethyl) (MOE); l = locked nucleic acid (LNA); [5mC] = 5-methylcytosine
I'd be grateful if you could share measured ABCB11 FC mRNA (5 μM ASO vs. untreated) for these entries.

>  <substance>
CO-11214 (antisense eG*eT*lGeG*lA*eG*l[5mC]*eAlA*eA*l[5mC]*eT*lAeG*lG*e[5mC]*lA*e[5mC]eT*eG)

>  <experimental_system>
human ABCB11 mRNA

>  <ABCB11 FC mRNA (5 μM ASO vs. untreated)>
2.90 fold change

$$$$

Here are 4 substances. What values of ABCB11 FC mRNA (5 μM ASO vs. untreated) were reported for them?
1. CO-11241 (antisense eG*eTeG*eG*lA*eGe[5mC]*eA*eA*lAe[5mC]*eT*eA*eGlG*e[5mC]*eA*e[5mC]eT*eG)
2. CO-11204 (antisense eT*eG*eT*eT*eTeT*eG*e[5mC]*eTeT*eG*eG*eTe[5mC]*eA*eA*eGeA*eG*eG)
3. CO-12754 (antisense eG*eT*eGeA*eG*eGe[5mC]*eA*eTe[5mC]*eA*eGeG*eT*eAeA*eG*eTeT*e[5mC])
4. CO-11212 (antisense eG*eT*lGeGlAeGl[5mC]*eA*lA*eA*l[5mC]*eT*lA*eGlGe[5mC]lAe[5mC]*eT*eG)

1. 1.71 fold change
2. 1.15 fold change
3. 1.04 fold change
4. 2.44 fold change

// for each substance below, give its ABCB11 FC mRNA (5 μM ASO vs. untreated)
1. CO-12748 (antisense eG*eTeGeAeGeGe[5mC]*eA*eT*e[5mC]*eA*eG*eG*eTeAeAeGeTeT*e[5mC])
2. CO-11200 (antisense eT*eG*eTeTeTeTeG*e[5mC]*eT*eT*eG*eG*eT*e[5mC]eAeAeGeA*eG*eG)

["0.91 fold change", "1.34 fold change"]
